Target: UniProt Q9P2K8
Sequence (Q9P2K8 whole entry): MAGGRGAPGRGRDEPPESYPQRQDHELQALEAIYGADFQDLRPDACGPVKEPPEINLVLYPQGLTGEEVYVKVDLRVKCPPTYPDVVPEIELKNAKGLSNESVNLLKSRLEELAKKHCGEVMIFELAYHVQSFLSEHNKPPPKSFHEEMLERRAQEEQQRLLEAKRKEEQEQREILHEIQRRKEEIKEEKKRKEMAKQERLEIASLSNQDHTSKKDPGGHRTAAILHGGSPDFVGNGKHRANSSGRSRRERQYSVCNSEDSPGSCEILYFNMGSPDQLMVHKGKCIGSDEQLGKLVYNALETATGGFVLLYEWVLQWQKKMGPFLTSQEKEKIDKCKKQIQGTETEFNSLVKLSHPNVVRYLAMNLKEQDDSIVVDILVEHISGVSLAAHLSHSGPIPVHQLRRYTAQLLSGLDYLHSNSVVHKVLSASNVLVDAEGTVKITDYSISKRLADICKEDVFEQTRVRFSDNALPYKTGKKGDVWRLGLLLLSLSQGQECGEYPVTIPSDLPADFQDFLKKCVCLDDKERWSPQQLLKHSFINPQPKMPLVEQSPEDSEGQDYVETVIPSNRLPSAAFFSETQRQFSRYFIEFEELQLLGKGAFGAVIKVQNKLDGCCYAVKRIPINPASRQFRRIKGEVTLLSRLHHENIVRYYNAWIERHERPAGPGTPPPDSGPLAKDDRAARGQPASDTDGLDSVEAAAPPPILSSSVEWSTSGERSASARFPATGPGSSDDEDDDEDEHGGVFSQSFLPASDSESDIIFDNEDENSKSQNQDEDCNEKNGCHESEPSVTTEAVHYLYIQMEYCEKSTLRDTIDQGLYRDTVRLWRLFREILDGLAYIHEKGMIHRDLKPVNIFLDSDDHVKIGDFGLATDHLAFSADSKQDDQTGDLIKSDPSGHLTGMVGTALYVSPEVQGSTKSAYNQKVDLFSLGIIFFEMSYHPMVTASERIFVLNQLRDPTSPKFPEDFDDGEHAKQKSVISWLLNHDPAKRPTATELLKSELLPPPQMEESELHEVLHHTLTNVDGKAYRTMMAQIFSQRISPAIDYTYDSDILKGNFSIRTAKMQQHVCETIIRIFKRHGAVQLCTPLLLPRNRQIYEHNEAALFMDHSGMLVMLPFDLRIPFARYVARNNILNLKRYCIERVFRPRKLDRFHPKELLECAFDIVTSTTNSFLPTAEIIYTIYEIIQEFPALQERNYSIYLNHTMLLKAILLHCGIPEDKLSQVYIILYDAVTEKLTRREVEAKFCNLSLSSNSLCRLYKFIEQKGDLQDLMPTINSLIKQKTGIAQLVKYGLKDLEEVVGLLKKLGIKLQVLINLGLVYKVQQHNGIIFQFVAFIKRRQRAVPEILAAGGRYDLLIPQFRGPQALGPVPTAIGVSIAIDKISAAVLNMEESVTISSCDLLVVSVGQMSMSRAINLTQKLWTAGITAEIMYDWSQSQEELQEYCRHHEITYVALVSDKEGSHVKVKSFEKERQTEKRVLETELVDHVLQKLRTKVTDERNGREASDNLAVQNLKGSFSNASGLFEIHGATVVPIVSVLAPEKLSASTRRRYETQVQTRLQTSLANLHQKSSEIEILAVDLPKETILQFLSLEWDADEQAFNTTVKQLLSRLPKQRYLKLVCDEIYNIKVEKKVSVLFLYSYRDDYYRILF
Experiment: GCN2 enzymatic endpoint assay: phosphorylation of GFP-eIF2α measured by TR-FRET (Lanthascreen)
Format: biochemical
Conditions: tested as described in Example 77; compound and/or hydrochloride, dihydrochloride or trifluoroacetic acid salt; read-out: IC 50 Activity
measurement name: IC50

Worked set:
>>> result("Cc1ccc2cc(-n3nc(Br)c4cnc(N[C@@H]5CC[C@@H](P(C)(C)=O)C5)nc43)cc(F)c2n1")
"25 to 200 nM"
>>> result("CNC(=O)[C@@H]1CC[C@@H](Nc2ncc3c(Br)nn(-c4cc(OC)c5ncccc5c4)c3n2)C1")
"< 25 nM"
>>> result("CNC(=O)[C@]1(C)CC[C@@H](Nc2ncc3c(Br)nn(-c4cc(CCCN)c5ncccc5c4)c3n2)C1")
"25 to 200 nM"
>>> result("CNC(=O)[C@]1(C)CC[C@@H](Nc2ncc3c(Br)nn(-c4ccc(-c5nnc(C(C)(C)O)o5)cc4)c3n2)C1")
"25 to 200 nM"
>>> result("CC1(C(=O)N2CNC(=O)C2)CC[C@@H](Nc2ncc3c(Br)nn(-c4cc(F)c5ncccc5c4)c3n2)C1 (some centres unmarked)")
"< 25 nM"

// lookup IC50 for `CNC(=O)[C@]1(C)CC[C@@H](Nc2ncc3c(Br)nn(-c4ccc5c(c4)OC(C)(C)C(=O)N5C)c3n2)C1`
25 to 200 nM

// lookup IC50 for `CNC(=O)[C@@H]1CC[C@@H](Nc2ncc3c(Br)nn(-c4ccc5nc(OC)ccc5c4)c3n2)C1`
25 to 200 nM

// lookup IC50 for `O=C([C@@H]1CC[C@@H](Nc2ncc3c(Br)nn(-c4ccc5ncccc5c4)c3n2)C1)N1CCC2(CNC2)C1`
< 25 nM

Taken from patent US11046699B2.
